- Test system: B16F0 melanoma tumour
- PROTOCOL DESCRIPTION: Biodistribution in B16 melanoma bearing mice
- Type: in vivo, C57BL/6J mice
- PROTOCOL CONDITIONS: B16F0 tumour, C57BL/6J mice, 24 h, mean ± S.D., n = 5
- Description: Animal experiments were performed in compliance with the NHMRC Australian Code of Practice for the care and use of animals for scientific purposes. […] Eleven days (B16F0 melanoma) and 25 days (A375 human melanoma) after tumour transplantation, the [^18F]nicotinamides (0.5-1.5 MBq, 100 μl) and [^123I]nicotinamide (0.37-0.74 MBq, 100 μl) derivatives were injected intravenously via the tail vein into mice (15-18 g). […] Selected organs were weighed and their radioactivity measured with a γ-counter. […]
Listed next: entries and their corresponding Organ distribution Liver.
Return type: number; implicit unit % ID/organ.

Here is how some molecules turned out for Organ distribution Liver.
MOLECULE | Organ distribution Liver (% ID/organ)
CCN(CC)CCNC(=O)c1cncc(I)c1 [[^123I]11] | 0.12
CCN(CC)CCNC(=O)c1ccc(I)nc1 [[^123I]14] | 0.19

What does the data say about its Organ distribution Liver? Entry: O=C(c1cncc(I)c1)N1CCN(Cc2ccccc2)CC1 [[^123I]20]
0.13

What does the data say about its Organ distribution Liver? Entry: CCCN(CCC)CCCCNC(=O)c1cncc(I)c1 [[^123I]17]
0.14
